- Target: SIRT1 (Homo sapiens, UniProt Q96EB6)
- Measurement protocol: Trp mass spectrometry assay of SIRT1 activation
- Assay type: biochemical
- Condition description: Trp peptide assay; EC1.5 = concentration that results in 150% activation of SIRT1
Measurement type: TRP Activity (EC1.5)

Completed entries (count: 8):
Cc1cc(-c2ccc3c(n2)N(C(=O)Nc2cncc(C)n2)[C@H]2CCCN3C2)ccn1	B (B (EC1.5 1-25 μM))
Cc1ccc(-c2ccc3c(n2)N(C(=O)NC2CCN(C)CC2)[C@H]2CCN3C2)cn1	C (C (EC1.5>25 μM))
O=C(Nc1cnccn1)N1c2nc(N3CCC(C(F)(F)F)CC3)ccc2N2CC[C@H]1C2	A (A (EC1.5<1 μM))
Cc1ccc(-c2ccc3c(n2)N(C(=O)NC2CCOC2)[C@H]2CCN3C2)cn1 (stereo partly drawn)	C (C (EC1.5>25 μM))
O=C(NC1CCOCC1)c1ccc2c(n1)N(C(=O)Nc1ccccn1)[C@H]1CCN2C1	B (B (EC1.5 1-25 μM))
O=C(NC(CO)C(F)(F)F)c1ccc2c(n1)N(C(=O)Nc1ccccn1)[C@H]1CCN2C1 (stereo partly drawn)	A (A (EC1.5<1 μM))
C[C@@H]1CN(c2ccc3c(n2)N(C(=O)Nc2cnccn2)[C@H]2CCN3C2)CCO1	B (B (EC1.5 1-25 μM))
COc1cncc(NC(=O)N2c3nc(-c4ccnc(C)c4)ccc3N3CCC[C@H]2C3)n1	A (A (EC1.5<1 μM))

query: State measured TRP Activity (EC1.5) of the molecule COCC(C)NC(=O)c1ccc2c(n1)N(C(=O)Nc1ccccn1)[C@H]1CCN2C1 (stereo partly drawn) with SIRT1 (Homo sapiens, UniProt Q96EB6).
result: B (B (EC1.5 1-25 μM))

====

- Target: SIRT1 (Homo sapiens)
- Measurement protocol: Trp mass spectrometry assay of SIRT1 activation
- Format: biochemical
- Condition description: concentration giving 150% activation of SIRT1; Trp peptide substrate
Measurement type: Tryp AVG EC1.5 (μM)

Completed entries (count: 8):
CC(C)(C)OC(=O)NCC#Cc1cc(NC(=O)N2c3nc(-c4cccc(C(F)(F)F)c4)ccc3N3CC[C@H]2C3)cc(-c2cnco2)c1	A (A (EC1.5<1 μM))
COc1cc(NC(=O)N2c3nc(-c4cccc(Cl)c4)ccc3N3C[C@@H](O)[C@H]2C3)ncn1	B (B (EC1.5 1-25 μM))
O=C(Nc1ccccn1)N1c2nc(-c3cncc(C(F)(F)F)c3)ccc2N2C[C@@H](O)[C@H]1C2	A (A (EC1.5<1 μM))
NCCCCCC(=O)NCc1cn(-c2cccc(NC(=O)N3c4nc(-c5cccc(C(F)(F)F)c5)ccc4N4CC[C@H]3C4)c2)nn1	A (A (EC1.5<1 μM))
O=C(Nc1cc(-c2cnco2)ccn1)N1c2nc(-c3cccc(Cl)c3)ccc2N2C[C@@H](O)[C@H]1C2	B (B (EC1.5 1-25 μM))
O=C(Nc1ccncn1)N1c2nc(-c3cccc(Cl)c3)ccc2N2C[C@@H](O)[C@H]1C2	B (B (EC1.5 1-25 μM))
C#CNc1nccc(NC(=O)N2c3nc(-c4cccc(C5(C(F)(F)F)N=N5)c4)ccc3N3CC[C@H]2C3)n1	B (B (EC1.5 1-25 μM))
O=C(Nc1cccnn1)N1c2nc(-c3cccc(Cl)c3)ccc2N2CC[C@H]1C2	A (A (EC1.5<1 μM))

query: State measured Tryp AVG EC1.5 (μM) of the compound O=C(Nc1cccc(-c2cnco2)n1)N1c2nc(-c3cncc(C(F)(F)F)c3)ccc2N2C[C@@H](O)[C@H]1C2 with SIRT1 (Homo sapiens).
result: A (A (EC1.5<1 μM))

query: State measured Tryp AVG EC1.5 (μM) of the compound CC(C)(C)OC(=O)NCCCc1ccc(NC(=O)N2c3nc(-c4cccc(C(F)(F)F)c4)ccc3N3CC[C@H]2C3)cc1-c1cnco1 with SIRT1 (Homo sapiens).
result: A (A (EC1.5<1 μM))

query: State measured Tryp AVG EC1.5 (μM) of the compound O=C(Nc1ccc2[nH]ncc2c1)N1c2nc(-c3cccc(C(F)(F)F)c3)ccc2N2CC[C@H]1C2 with SIRT1 (Homo sapiens).
result: A (A (EC1.5<1 μM))

query: State measured Tryp AVG EC1.5 (μM) of the compound O=C(Nc1nnc(-c2cccnc2)o1)N1c2nc(-c3cccc(C(F)(F)F)c3)ccc2N2CC[C@H]1C2 with SIRT1 (Homo sapiens).
result: A (A (EC1.5<1 μM))

query: State measured Tryp AVG EC1.5 (μM) of the compound Cc1nc(NC(=O)N2c3nc(-c4cccc(Cl)c4)ccc3N3C[C@@H](O)[C@H]2C3)sc1C with SIRT1 (Homo sapiens).
result: B (B (EC1.5 1-25 μM))

query: State measured Tryp AVG EC1.5 (μM) of the compound O=C(Nc1cc(-c2cnco2)ccn1)N1c2nc(-c3cncc(C(F)(F)F)c3)ccc2N2C[C@@H](O)[C@H]1C2 with SIRT1 (Homo sapiens).
result: B (B (EC1.5 1-25 μM))

====

- Target: SIRT1 (Homo sapiens, UniProt Q96EB6)
- Sequence (Q96EB6 1-747): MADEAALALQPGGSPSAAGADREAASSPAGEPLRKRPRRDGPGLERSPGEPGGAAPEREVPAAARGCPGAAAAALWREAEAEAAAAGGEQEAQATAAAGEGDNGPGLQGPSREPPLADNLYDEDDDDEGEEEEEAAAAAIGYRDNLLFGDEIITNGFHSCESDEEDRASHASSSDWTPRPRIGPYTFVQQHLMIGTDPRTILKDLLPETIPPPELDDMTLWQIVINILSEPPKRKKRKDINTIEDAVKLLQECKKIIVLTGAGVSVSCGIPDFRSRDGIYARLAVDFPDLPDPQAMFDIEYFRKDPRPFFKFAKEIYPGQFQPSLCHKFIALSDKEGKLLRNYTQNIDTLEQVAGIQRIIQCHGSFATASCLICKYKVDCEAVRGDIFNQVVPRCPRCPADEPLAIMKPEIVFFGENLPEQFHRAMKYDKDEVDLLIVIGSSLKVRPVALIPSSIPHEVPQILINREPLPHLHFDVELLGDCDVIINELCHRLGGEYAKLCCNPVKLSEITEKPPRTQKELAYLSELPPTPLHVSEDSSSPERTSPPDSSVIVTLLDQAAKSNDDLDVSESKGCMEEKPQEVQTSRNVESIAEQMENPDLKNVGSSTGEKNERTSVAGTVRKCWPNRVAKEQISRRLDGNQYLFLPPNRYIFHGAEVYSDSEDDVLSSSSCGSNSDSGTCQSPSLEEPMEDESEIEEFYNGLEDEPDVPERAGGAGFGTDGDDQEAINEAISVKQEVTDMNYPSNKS
- Measurement protocol: Trp mass spectrometry assay of SIRT1 activation
- Format: biochemical
- Condition description: concentration giving 150% activation of SIRT1; Trp peptide substrate
Measurement type: Tryp AVG EC1.5 (μM)

CS(=O)(=O)c1cccc(-c2ccc3c(n2)N(C(=O)Nc2cncc(-c4cnco4)c2)[C@H]2CCN3C2)c1 [Example 724]	A (A (EC1.5<1 μM))
O=C(Nc1cc(-c2cnco2)ccn1)N1c2nc(-c3cncc(F)c3)ccc2N2CC[C@H]1C2 [Example 727]	A (A (EC1.5<1 μM))
O=C(Nc1cccnn1)N1c2nc(-c3cncc(C(F)(F)F)c3)ccc2N2C[C@@H](O)[C@H]1C2 [Example 701]	B (B (EC1.5 1-25 μM))
NS(=O)(=O)c1ccc(NC(=O)N2c3nc(-c4cccc(C(F)(F)F)c4)ccc3N3CC[C@H]2C3)cc1 [Example 643]	A (A (EC1.5<1 μM))
O=C(Nc1cccc(-c2cnco2)c1)N1c2nc(N3CCC[C@H](C(F)(F)F)C3)ccc2N2CC[C@H]1C2 [Example 718]	A (A (EC1.5<1 μM))

query: Provide measured Tryp AVG EC1.5 (μM) value, entry: O=C(Nc1cccc(Br)n1)N1c2nc(-c3cccc(C(F)(F)F)c3)ccc2N2CC[C@H]1C2 [Example 652]
result: A (A (EC1.5<1 μM))

query: Provide measured Tryp AVG EC1.5 (μM) value, entry: C#CCOc1cc(-c2ccc3c(n2)N(C(=O)Nc2cccc(C4(C(F)(F)F)N=N4)c2)[C@H]2CCN3C2)cc(C(F)(F)F)c1 [Example 800]
result: C (C (EC1.5>25 μM))

query: Provide measured Tryp AVG EC1.5 (μM) value, entry: O=C(Nc1cccnn1)N1c2nc(-c3cccc(Cl)c3)ccc2N2C[C@@H](O)[C@H]1C2 [Example 682]
result: B (B (EC1.5 1-25 μM))

query: Provide measured Tryp AVG EC1.5 (μM) value, entry: CCCCC(=O)c1cccc(NC(=O)N2c3nc(-c4cccc(C(F)(F)F)c4)ccc3N3CC[C@H]2C3)c1 [Example 737]
result: A (A (EC1.5<1 μM))

====

- Target: UniProt Q96EB6
- Measurement protocol: Trp mass spectrometry assay of SIRT1 activation
- Assay type: biochemical
- Condition description: Trp mass spectrometry assay; concentration of test compound giving 150% activation of SIRT1
Measurement type: Tryp AVG EC1.5 (μM)

O=C(Nc1cnccn1)N1c2nc(-c3cncc(Cl)c3)ccc2N2CCC[C@H]1C2 [Example 417]	A (A (EC1.5<1 μM))
O=C(Nc1cnccn1)N1c2nc(-c3cc(C(F)(F)F)cc(C(F)(F)F)c3)ccc2N2CC[C@H]1C2 [Example 363]	B (B (EC1.5 1-25 μM))
COc1cc(NC(=O)N2c3nc(-c4cccc(CC(O)CO)c4)ccc3N3CC[C@H]2C3)ncn1 (some centres unmarked) [Example 355]	B (B (EC1.5 1-25 μM))
CN(C)c1cccc(-c2ccc3c(n2)N(C(=O)Nc2ccc(F)cn2)[C@H]2CCCN3C2)c1 [Example 384]	B (B (EC1.5 1-25 μM))
COc1cncc(-c2ccc3c(n2)N(C(=O)Nc2ccccn2)[C@H]2CCN3C2)c1 [Example 346]	B (B (EC1.5 1-25 μM))

query: Provide measured Tryp AVG EC1.5 (μM) value, entry: O=C(Nc1ccncn1)N1c2nc(-c3cccc(C(F)(F)F)n3)ccc2N2CC[C@H]1C2 [Example 337]
result: B (B (EC1.5 1-25 μM))
